# System Name: human GPR119 (Homo sapiens, UniProt Q8TDV5)
# Construct: expressed in transfected cells
# Sequence (Q8TDV5 whole entry): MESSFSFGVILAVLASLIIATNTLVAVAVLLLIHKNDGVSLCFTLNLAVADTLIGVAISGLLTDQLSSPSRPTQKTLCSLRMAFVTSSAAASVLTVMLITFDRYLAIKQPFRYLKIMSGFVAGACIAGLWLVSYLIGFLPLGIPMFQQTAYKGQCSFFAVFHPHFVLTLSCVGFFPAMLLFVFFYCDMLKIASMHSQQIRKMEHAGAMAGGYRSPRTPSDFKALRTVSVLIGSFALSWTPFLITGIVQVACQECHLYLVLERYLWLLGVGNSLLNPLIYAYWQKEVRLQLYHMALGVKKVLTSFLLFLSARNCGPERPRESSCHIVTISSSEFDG
# Protocol Description: Human GPR119 agonist activity with increase of intracellular cAMP concentration as index (CRE-luciferase reporter assay in hGPR119/CRE-luc/CHO(dhfr-) cells)
# Type: cell-based
# Setup Conditions: 1 μM test compound, 2 hr incubation; luciferase activity with 10 μM N-[4-(methylsulfonyl)phenyl]-5-nitro-6-{4-[4-(trifluoromethoxy)phenoxy]piperidin-1-yl}pyrimidin-4-amine = 100%, DMSO = 0%
Experimental Endpoint: GPR119 agonist activity (%) at 1 μM concentration

COc1cnc(N2CCC(N(c3cc(N4CCc5cc(S(C)(=O)=O)ccc54)ncn3)C(F)(F)F)CC2)nc1	77
CC(C)c1noc(N2CCC(Oc3cc(N4CCc5cc(S(C)(=O)=O)ccc54)ncn3)CC2)n1	79
CCc1cnc(N2CCC(Oc3cc(N4CCc5cc(S(C)(=O)=O)ccc54)ncn3)CC2)nc1	74
CCc1cnc(N2CCC(Oc3cc(N4CCc5cc(C(=O)N(C)CCO)ccc54)ncn3)CC2)nc1	80
CC(C)c1noc(N2CCC(Oc3cc(N4CCc5cc(S(C)(=O)=O)cc(F)c54)ncn3)CC2)n1	77
CC(C)(C)SC(=O)N1CCC(Oc2cc(N3CCc4cc(S(C)(=O)=O)ccc43)ncn2)CC1	87
CC(C)OC(=O)N1CCC(n2ccc3c(N4CCc5cc([N+](=O)[O-])ccc54)ncnc32)CC1	96
CCc1noc(N2CCC(Oc3cc(N4CCc5cc(S(C)(=O)=O)ccc54)ncn3)CC2)n1	85
CC(C)OC(=O)N1CCC(Oc2cc(N3CCc4cc(S(C)(=O)=O)ccc43)ncn2)CC1	74
COCC(=O)Nc1ccc2c(c1)CCN2c1cc(OC2CCN(C(=O)OC(C)C)CC2)ncn1	77
CC(C)(C)OC(=O)N1CC(Cn2ccc3c(N4CCc5cc(S(C)(=O)=O)ccc54)ncnc32)C1	82
CC(C)OC(=O)N1CCC(n2ccc3c(N4CCc5cc(N6CCCC6=O)ccc54)ncnc32)CC1	93
CCc1cnc(N2CCC(Oc3cc(N4CCc5cc(NC(=O)CO)ccc54)ncn3)CC2)nc1	75
CC(C)SC(=O)N1CCC(N(c2cc(N3CCc4cc(S(C)(=O)=O)ccc43)ncn2)C(F)(F)F)CC1	82
CCc1cnc(N2CCC(Oc3cc(N4CCc5cc(C(=O)N6CCOCC6)ccc54)ncn3)CC2)nc1	77
CC(C)SC(=O)N1CCC(Oc2cc(N3CCc4cc(N5CCCC5=O)ccc43)ncn2)CC1	75

Hey, just so you know, these numbers are from patent US8410089B2.
